Each entry below carries its recorded koff.
# TARGET_SYSTEM: T1, human IL-12 (human, UniProt P29460 23-328; P29459 23-219)
# T1 construct: Recombinant (Peprotech); FLAG-tagged IL-12 in the flow cytometry assays, biotinylated in the IL-12Rβ2 assay; also called hIL-12
# T1 sequence 1: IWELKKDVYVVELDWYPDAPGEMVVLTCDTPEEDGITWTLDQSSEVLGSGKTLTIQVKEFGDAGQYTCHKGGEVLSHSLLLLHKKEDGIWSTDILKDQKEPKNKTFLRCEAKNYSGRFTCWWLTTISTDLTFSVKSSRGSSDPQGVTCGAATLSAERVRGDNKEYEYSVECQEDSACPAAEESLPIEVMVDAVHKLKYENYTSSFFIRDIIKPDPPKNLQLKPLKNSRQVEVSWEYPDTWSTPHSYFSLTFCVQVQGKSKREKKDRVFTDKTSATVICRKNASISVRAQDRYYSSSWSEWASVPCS
# T1 sequence 2: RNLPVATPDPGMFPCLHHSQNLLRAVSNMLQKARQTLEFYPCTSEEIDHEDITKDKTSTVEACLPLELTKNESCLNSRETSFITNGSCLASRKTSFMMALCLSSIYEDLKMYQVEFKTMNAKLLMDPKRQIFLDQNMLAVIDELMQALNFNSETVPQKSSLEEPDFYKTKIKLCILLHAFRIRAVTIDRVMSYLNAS
# ASSAY_TEXT: SPR, IgG on Protein A
# Method: Using SPR technology the kₐ and kd and the KD of various humanized antibodies was determined. Using a SPR 3000, Protein A was immobilized onto FC1 and FC2 (or alternatively FC3 and FC4) of a CM5 research grade sensor chip using amine coupling, giving approximately […] RU. FC1 was used a blank throughout the experiments. The experiments were run in HBS-P buffer (SPR). At a flow rate of 20 μl/min, 20 μl of 5 μg/mL of antibody was passed over FC2. […]
Response body: numeric value in s⁻¹, unit text excluded.

Record excerpt, results attached:
Antibody 205 (antibody, human IgG1, kappa, V domains shown) VH: QVQLVQSGAEVKKPGASVKVSCKASGYTFTDYYLHWVRQAPGRGLEWMGWIDPENGDTEYAPKFQGRVTMTTDTSTSTAYMELRSLRSDDTAVYYCAANKELRYFDVWGQGTMVTVSS VL: EIVMTQSPATLSVSPGERATLSCRASQSISINLHWYQQKPGQAPRLLIYFASQSISGIPARFSGSGSGTEFTLTISSLQSEDFAVYYCQQSNSFPLTFGGGTKVEIKR :: 0.000581
Antibody 192 (antibody, human IgG1, kappa, V domains shown) VH: QVQLVQSGAEVKKPGASVKVSCKASGYTLTDYYLHWVRQAPGQGLEWMGWIDPENGDTEYAPKFQGRVTMTTDTSTSTAYMELRSLRSDDTAVYYCAANKELRYFDVWGQGTMVTVSS VL: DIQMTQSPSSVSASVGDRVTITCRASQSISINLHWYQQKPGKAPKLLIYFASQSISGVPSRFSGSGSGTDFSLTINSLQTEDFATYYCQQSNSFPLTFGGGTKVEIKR :: 0.000356

// moving on: another record for koff
Given item Antibody 180 (antibody, human IgG1, kappa, V domains shown) VH: EVQLVQSGAEVKKPGATVKISCKASGYTLSDYYLHWVRQAPEKGLEWMGWIDPENGDTESAPKFQGRVTITADTSTDTGYLELSSLRSEDTAVYYCAANKELRYFDVWGQGTLVTVSS VL: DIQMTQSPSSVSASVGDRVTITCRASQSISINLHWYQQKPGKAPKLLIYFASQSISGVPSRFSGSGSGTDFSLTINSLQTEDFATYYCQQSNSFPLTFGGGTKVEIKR , the value recorded as its koff is 0.000173
